- Assay Text: Toxicity tests and growth tests on human fibroblasts (cellular proteins, Bradford)
- Type: cell-based
- Stated Conditions: human
Readout: viability at 3 days, 0.003 % (%)
// units = %; emit number, no label

Input line: Return reported viability at 3 days, 0.003 %; argument: CC1(C)CC[C@]2(CO)CC[C@]3(C)C(=CC[C@@H]4[C@@]5(C)CC[C@H](O)C(C)(C)[C@@H]5CC[C@]43C)[C@@H]2C1
Output line: 34

====

- Assay Text: Toxicity tests and growth tests on human fibroblasts (cellular proteins, Bradford)
- Assay type: cell-based
- Stated Conditions: human
Readout: viability at 3 days, 0.0001 % (%)
Only the number, expressed in %, is required.

Input line: // query viability at 3 days, 0.0001 % value for entry CC1(C)CC[C@]2(CO)CC[C@]3(C)C(=CC[C@@H]4[C@@]5(C)CC[C@H](O)C(C)(C)[C@@H]5CC[C@]43C)[C@@H]2C1 [erythrodiol]
Output line: 104
